Collected Dmax values appear next to each entry.
target: HiBit-BRG1 fusion protein (Homo sapiens); construct: expressed in transfected cells; test: HiBiT-BRG1 cell-based degradation assay (Nano-Glo HiBiT Lytic Detection, 24 h); details: HeLa cell line expressing HiBit-BRG1 and LgBit, read-out: BRG1 HiBit Degradation Maximum (%)
Sequence (P51532 whole entry, the tested form may be a part): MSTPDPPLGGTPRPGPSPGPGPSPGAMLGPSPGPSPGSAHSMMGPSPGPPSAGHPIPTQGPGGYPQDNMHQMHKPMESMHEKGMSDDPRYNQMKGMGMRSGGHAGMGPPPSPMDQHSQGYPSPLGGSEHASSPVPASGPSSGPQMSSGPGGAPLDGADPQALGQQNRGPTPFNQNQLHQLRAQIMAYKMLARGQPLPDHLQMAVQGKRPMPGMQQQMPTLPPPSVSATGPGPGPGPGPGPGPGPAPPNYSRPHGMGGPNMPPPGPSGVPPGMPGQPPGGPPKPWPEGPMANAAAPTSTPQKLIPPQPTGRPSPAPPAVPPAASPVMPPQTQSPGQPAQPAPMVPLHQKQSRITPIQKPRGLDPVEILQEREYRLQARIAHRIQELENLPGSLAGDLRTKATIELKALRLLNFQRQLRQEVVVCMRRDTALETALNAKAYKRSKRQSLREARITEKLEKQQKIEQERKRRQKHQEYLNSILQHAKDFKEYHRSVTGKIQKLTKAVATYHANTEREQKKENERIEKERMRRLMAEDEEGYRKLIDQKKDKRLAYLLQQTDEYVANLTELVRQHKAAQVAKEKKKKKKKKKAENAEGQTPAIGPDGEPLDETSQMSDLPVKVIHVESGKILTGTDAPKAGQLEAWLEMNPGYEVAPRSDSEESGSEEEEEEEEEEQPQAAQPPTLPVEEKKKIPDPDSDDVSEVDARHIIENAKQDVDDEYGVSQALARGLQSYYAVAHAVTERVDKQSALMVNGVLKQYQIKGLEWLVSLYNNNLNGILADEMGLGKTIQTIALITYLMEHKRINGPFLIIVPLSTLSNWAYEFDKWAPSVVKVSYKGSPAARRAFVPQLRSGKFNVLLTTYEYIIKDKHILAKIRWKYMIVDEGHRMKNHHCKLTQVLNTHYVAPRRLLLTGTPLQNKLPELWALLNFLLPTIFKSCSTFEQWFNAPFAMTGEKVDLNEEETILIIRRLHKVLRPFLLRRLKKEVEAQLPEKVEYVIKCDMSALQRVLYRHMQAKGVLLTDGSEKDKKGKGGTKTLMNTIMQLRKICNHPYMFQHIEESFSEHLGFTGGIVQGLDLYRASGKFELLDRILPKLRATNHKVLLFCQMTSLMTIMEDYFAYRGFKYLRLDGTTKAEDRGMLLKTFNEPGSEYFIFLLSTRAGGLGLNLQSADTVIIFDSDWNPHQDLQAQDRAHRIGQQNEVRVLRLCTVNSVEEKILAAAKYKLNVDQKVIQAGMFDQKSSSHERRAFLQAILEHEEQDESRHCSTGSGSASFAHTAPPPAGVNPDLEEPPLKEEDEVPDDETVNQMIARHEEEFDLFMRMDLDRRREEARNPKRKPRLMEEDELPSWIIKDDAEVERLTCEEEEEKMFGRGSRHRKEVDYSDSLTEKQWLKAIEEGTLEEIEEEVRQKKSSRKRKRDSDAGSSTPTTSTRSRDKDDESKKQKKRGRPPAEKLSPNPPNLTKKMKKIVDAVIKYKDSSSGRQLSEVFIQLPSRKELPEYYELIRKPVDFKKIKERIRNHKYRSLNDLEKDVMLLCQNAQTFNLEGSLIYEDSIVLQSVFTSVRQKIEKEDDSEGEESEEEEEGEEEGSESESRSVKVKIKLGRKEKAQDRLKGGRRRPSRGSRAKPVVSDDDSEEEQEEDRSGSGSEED

Use these answered entries as a reference point.
compound | experimental-target | observed-value
Cc1ncsc1-c1ccc([C@H](C)NC(=O)[C@@H]2C[C@@H](O)CN2C(=O)[C@@H](c2cc(OCCN3CC(COc4c[nH]c5nnc(-c6ccccc6O)cc45)C3)no2)C(C)C)cc1 (racemic) | HiBit-BRG1 fusion protein (Homo sapiens) | > 75%
Cc1ncsc1-c1ccc([C@H](C)NC(=O)[C@@H]2C[C@@H](O)CN2C(=O)[C@@H](c2cc(OCCCN3CC4(CC(c5c[nH]c6nnc(-c7ccccc7O)cc56)C4)C3)no2)C(C)C)cc1 (racemic) | HiBit-BRG1 fusion protein (Homo sapiens) | > 75%
Cc1ncsc1-c1ccc([C@H](C)NC(=O)[C@@H]2C[C@@H](O)CN2C(=O)[C@@H](c2cc(N3C[C@H]4C[C@@H]3CN4C(=O)[C@@H]3CCc4[nH]c5nnc(-c6ccccc6O)cc5c4C3)no2)C(C)C)cc1 | HiBit-BRG1 fusion protein (Homo sapiens) | > 75%

Turning to the following compound.
Entry Cc1ncsc1-c1ccc([C@H](C)NC(=O)[C@@H]2C[C@@H](O)CN2C(=O)[C@@H](c2cc(N3C[C@H]4C[C@@H]3CN4C(=O)[C@H]3C[C@@]4(Cc5cc(-c6ccccc6O)nnc5N4)C3)no2)C(C)C)cc1 (racemic) has what Dmax? < 50%
